Test system: NCI-H2722 (Mesothelioma)
Test: combination Emax (second highest fraction inhibited in the dose matrix, 72 h); higher = more inhibition; extreme values may be limits of the assay
property name: combination Emax
Simply state the number, no unit and no words.

Worked examples, 3 compounds total:
# compound, numeric value
rows = [
    ("Cn1cnc2c(F)c(Nc3ccc(Br)cc3Cl)c(C(=O)NOCCO)cc21 [Selumetinib] + C=CCn1c(=O)c2cnc(Nc3ccc(N4CCN(C)CC4)cc3)nc2n1-c1cccc(C(C)(C)O)n1 [AZD1775] (first compound max 10 µM, partner max 1 µM)", 0.304),
    ("Cn1cnc2c(F)c(Nc3ccc(Br)cc3Cl)c(C(=O)NOCCO)cc21 [Selumetinib] + CC(C)n1c(=O)n(C)c2cnc3cc(F)c(-c4ccc(OCCCN5CCCCC5)nc4)cc3c21 [AZD1390] (first compound max 10 µM, 7x7, partner max 0.3 µM)", 0.0639),
    ("Cc1c2c(nn1C)CSCc1cc(n(C)n1)CSc1cc(c3ccccc3c1)OCCCc1c(C(=O)O)n(C)c3c-2c(Cl)ccc13 [AZD5991] + C1CN(CCC1(C(=O)N[C@@H](CCO)C2=CC=C(C=C2)Cl)N)C3=NC=NC4=C3C=CN4 [Capivasertib] (first compound max 1 µM, 7x7, partner max 3 µM)", 0.173),
]

# next compound below
Name the recorded combination Emax for CC1(C)CCC(CN2CCN(c3ccc(C(=O)NS(=O)(=O)c4ccc(NCC5CCOCC5)c([N+](=O)[O-])c4)c(Oc4cnc5[nH]ccc5c4)c3)CC2)=C(c2ccc(Cl)cc2)C1 [Venetoclax] + Cn1cnc2c(F)c(Nc3ccc(Br)cc3Cl)c(C(=O)NOCCO)cc21 [Selumetinib] (first compound max 1 µM, 7x7, partner max 3 µM) .
0.14
